FYI, the data here is from paper PMC8536644.

Measurement description: Trypan Blue viability of the single cell suspension, liver
Assay type: in vivo, rat
Run parameters: male, Wistar, rat, liver, inhaled, 10 ppm, liver, male, Comet with FPG (Table 8); 10 ppm inhalation, 5 days; individual animals; read-out: Individual viability (%)
Observable: viability at 5 days (%)
Record the value in %, omitting the unit from your answer.

viability at 5 days lookup needed for C=CN1CCCC1=O , thanks.
99

----------
Measurement description: Trypan Blue viability of the single cell suspension, liver
Assay type: in vivo, rat
Run parameters: male, Wistar, rat, in vivo, po, 200 mg/kg, Viability (%) (mean ± SD)
Observable: viability at 24 h
Write your answer as a measured quantity: the number, then the unit.

viability at 24 h lookup needed for CCOS(C)(=O)=O [EMS, ethyl methanesulfonate, reference compound] , thanks.
95%
